- STUDY_SYSTEM: Integrin alpha-IIb/beta-3 (Homo sapiens, UniProt P05106+P08514)
- Sequence (P05106 27-788 limits assumed): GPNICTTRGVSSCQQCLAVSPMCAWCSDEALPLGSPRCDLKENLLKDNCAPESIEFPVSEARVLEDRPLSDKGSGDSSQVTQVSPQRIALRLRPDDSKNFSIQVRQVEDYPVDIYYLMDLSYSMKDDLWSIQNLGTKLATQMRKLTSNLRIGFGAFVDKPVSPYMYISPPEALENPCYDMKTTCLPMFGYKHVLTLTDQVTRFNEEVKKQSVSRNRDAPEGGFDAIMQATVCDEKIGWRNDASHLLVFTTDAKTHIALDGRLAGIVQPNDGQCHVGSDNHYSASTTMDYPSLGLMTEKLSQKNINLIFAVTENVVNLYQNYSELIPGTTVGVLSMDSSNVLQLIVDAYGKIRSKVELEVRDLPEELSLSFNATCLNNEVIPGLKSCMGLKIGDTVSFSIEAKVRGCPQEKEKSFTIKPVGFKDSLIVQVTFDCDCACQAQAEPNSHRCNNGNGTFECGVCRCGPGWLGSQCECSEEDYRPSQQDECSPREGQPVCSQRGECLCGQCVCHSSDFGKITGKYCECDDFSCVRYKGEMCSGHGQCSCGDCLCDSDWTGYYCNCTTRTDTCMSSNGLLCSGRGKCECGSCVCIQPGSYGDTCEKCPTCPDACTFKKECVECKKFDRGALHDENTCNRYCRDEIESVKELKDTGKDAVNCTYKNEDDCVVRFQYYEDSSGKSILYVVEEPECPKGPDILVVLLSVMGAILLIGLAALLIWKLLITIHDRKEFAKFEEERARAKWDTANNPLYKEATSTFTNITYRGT
- Sequence (P08514 32-887 limits assumed): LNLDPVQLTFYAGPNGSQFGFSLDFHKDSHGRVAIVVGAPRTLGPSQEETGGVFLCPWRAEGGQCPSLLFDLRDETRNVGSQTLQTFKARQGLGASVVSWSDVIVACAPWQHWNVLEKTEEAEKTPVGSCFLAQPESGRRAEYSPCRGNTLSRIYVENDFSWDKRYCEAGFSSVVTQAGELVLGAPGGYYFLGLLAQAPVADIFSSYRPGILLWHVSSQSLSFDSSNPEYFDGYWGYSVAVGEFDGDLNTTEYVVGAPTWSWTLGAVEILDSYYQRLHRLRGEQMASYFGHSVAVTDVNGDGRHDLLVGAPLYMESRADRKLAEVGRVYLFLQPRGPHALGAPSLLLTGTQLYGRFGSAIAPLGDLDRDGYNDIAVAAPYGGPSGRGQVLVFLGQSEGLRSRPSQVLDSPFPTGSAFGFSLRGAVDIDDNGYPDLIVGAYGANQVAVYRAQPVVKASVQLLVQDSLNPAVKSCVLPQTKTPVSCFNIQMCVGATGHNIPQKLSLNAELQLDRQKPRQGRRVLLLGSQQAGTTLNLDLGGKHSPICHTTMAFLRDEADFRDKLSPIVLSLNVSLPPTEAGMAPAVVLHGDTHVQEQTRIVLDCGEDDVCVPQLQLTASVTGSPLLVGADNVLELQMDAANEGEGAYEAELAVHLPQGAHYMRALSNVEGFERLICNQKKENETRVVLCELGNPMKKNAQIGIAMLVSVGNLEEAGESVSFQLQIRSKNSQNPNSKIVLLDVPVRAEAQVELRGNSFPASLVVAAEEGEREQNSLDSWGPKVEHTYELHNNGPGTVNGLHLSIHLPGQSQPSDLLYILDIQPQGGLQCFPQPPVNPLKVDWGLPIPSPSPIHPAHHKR
- Sequence (P08514 891-1039 limits assumed): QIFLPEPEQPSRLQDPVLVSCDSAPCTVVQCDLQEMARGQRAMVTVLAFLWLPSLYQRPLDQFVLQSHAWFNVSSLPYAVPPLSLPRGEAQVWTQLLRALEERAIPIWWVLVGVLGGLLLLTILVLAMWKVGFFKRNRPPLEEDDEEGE
- TEST_DESCRIPTION: Displacement of [125I]echistatin from alphaIIb-beta3 integrin of human platelets
Numbered stars: 1 amine (or outer) side, 2 acyl side, 3 side chain; on linkers, the order of the positions; unused ones are H or OH. Square brackets hold non-standard residues; d marks the D form. Peptide text beside a SMILES is read from it. X1 = O=C(C[C@@H]1O[C@H](CN[*:1])[C@@H](O)[C@H]1O)[*:2]
Please go through the items and note down their pIC50.
# pIC50: negative log10 of molar concentration; output just the value

Please report the recorded pIC50 for CC(C)[C@@H]1NC(=O)[C@H](CC(=O)O)NC(=O)CNC(=O)[C@H](CCCN=C(N)N)NC(=O)C[C@@H]2O[C@H](CNC1=O)[C@@H](O)[C@H]2O (cyclo(RGDV[X1])) .
4.49

Query (molecule): N=C(N)NCCC[C@@H]1NC(=O)C[C@@H]2O[C@H](CNC(=O)[C@H](CC(=O)O)NC(=O)CNC1=O)[C@@H](O)[C@H]2O ; field requested: pIC50
6.42

What pIC50 value was documented for this molecule, N=C(N)NCCCC1NC(=O)C[C@@H]2O[C@H](CNC(=O)C[C@@H]3O[C@H](CNC(=O)C(CC(=O)O)NC(=O)CNC1=O)[C@@H](O)[C@H]3O)[C@@H](O)[C@H]2O (stereo partly drawn) ?
3.70
